- Tested on: SEM cells
- protocolDescription: cell viability relative to DMSO control; higher = less cytotoxic
- conditionLabel: RPMI 5 mM glucose + 10% FBS; 48 h; 0.00234 µM
Could you please report measured cell viability for the items listed next?
Only the number, expressed in %, is required.

Exercise: Quick check: cell viability of "O=C1c2c(O)ccc(O)c2C(=O)c2c(NCCNCCO)ccc(NCCNCCO)c21" ?
Solution: 99.7

Exercise: Recorded cell viability of "C[S+]([O-])(=O)C1=CC=C(C=C1)C/2=C(/C(=O)OC2)C3=CC=CC=C3" , please.
Solution: 107

Exercise: Value lookup for cell viability; key = "COc1ccc(-c2nc(N3CCOCC3)c3sc(CN(C)c4ncc(C(=O)NO)cn4)cc3n2)cn1"
Solution: 83.6

Exercise: Which cell viability value is on record for "C[C@]1(c2nc3c(C(N)=O)cccc3[nH]2)CCCN1" ?
Solution: 62.7

Exercise: Give its cell viability value. Item: "Cc1cnc(NC(=O)Nc2cc(Br)c(C)cc2OC[C@@H]2CNCCO2)cn1"
Solution: 114

Exercise: Any idea what its cell viability is? The compound is "CC(C)NC[C@@H](C(=O)N1CCN(c2ncnc3c2[C@H](C)C[C@H]3O)CC1)c1ccc(Cl)cc1"
Solution: 112

Exercise: Value lookup for cell viability; key = "COc1cc2nccc(Oc3ccc(NC(=O)NC4CC4)c(Cl)c3)c2cc1C(N)=O"
Solution: 117

Exercise: Using the record for "C[C@@]12C[C@@]3(O)O[C@@H](O1)[C@]1(COC(=O)c4ccccc4)[C@H]3C[C@@]12O[C@@H]1O[C@H](CO)[C@@H](O)[C@H](O)[C@H]1O" , report its cell viability.
Solution: 87
